# Study Target: PAI-1 (Homo sapiens)
# Experimental Protocol: biochemical
# Condition Info: 20 μM (third part of Table 1); read-out: Degree of inhibition in PAI chromogenic substrate assay
Counter-ions that a name gives are not always drawn.
Measurement Type: inhibition at 20 µM (%)

Compound	Study Target	inhibition at 20 µM, %
CN(C)CCOCc1ccc(/C=c2\[nH]c(=O)/c(=C/c3ccccc3Br)[nH]c2=O)cc1 [Compound 5070.HCl]	PAI-1 (Homo sapiens)	6

(1) CN(C)CCCOc1ccc(/C=c2\[nH]c(=O)/c(=C/c3ccc(C(=O)Nc4ccccc4)cc3)[nH]c2=O)cc1 [Compound 5343]
(2) CN(C)CCSCc1ccc(/C=c2\[nH]c(=O)/c(=C/c3ccccc3Br)[nH]c2=O)cc1 [Compound 5080.HCl]
(3) CN(C)CCCOc1ccc(/C=c2\[nH]c(=O)/c(=C/c3cccc([N+](=O)[O-])c3)[nH]c2=O)cc1 [Compound 5231]
(4) CN(C)CCSCc1ccc(/C=c2\[nH]c(=O)/c(=C/c3ccccc3)[nH]c2=O)cc1 [Compound 5058]
(5) COc1ccccc1/C=c1\[nH]c(=O)/c(=C/c2ccc(OCCCN(C)C)cc2)[nH]c1=O [Compound 5241]
[Q] Falling order of inhibition at 20 µM, please. Give the labels in the order requested.
[A] 4, 3, 1, 2, 5
(4: 75%, 3: 42%, 1: 20%, 2: 10%, 5: 1%)

----------
# Study Target: PAI-1 (Homo sapiens, UniProt P05121)
# Sequence (P05121 24-402): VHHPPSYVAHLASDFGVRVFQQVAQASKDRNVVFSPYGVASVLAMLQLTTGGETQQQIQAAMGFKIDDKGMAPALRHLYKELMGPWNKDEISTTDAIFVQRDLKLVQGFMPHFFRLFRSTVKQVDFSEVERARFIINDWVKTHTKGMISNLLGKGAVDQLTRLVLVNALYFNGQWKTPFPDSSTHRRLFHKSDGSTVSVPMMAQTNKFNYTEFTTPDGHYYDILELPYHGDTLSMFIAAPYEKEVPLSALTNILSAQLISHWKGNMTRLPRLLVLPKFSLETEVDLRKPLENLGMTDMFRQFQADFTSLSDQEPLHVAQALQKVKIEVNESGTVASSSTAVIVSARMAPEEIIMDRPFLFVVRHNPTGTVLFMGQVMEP
# Experimental Protocol: biochemical
# Condition Info: 6.25 μM; read-out: Degree of inhibition in PAI chromogenic substrate assay
Measurement Type: inhibition at 6.25 µM (%)

Mol	Study Target	inhibition at 6.25 µM [%]
CN(C)CCOc1ccccc1/C=c1\[nH]c(=O)/c(=C/c2ccccc2)[nH]c1=O	PAI-1 (Homo sapiens, UniProt P05121)	0
COc1ccc(/C=c2\[nH]c(=O)/c(=C/c3ccc(OC(=O)CC(C)(C)C)cc3)[nH]c2=O)cc1	PAI-1 (Homo sapiens, UniProt P05121)	0
CCCCCCC(=O)Oc1ccc(/C=c2\[nH]c(=O)/c(=C/c3ccc(OC)cc3)[nH]c2=O)cc1	PAI-1 (Homo sapiens, UniProt P05121)	0

----------
# Study Target: UniProtKB P05121
# Experimental Protocol: biochemical
# Condition Info: PAI chromogenic substrate assay; read-out: IC50
Measurement Type: IC50 (µM)

The examples below pair each entry with its known result.
Compound	IC50 (µM)
CN(C)CCCOc1ccc(/C=c2\[nH]c(=O)/c(=C/c3cc(Cl)cc(Cl)c3)[nH]c2=O)cc1 [Compound 5380]	15
CN(C)CCCOc1ccc(/C=c2\[nH]c(=O)/c(=C/c3ccc(C(F)(F)F)cc3)[nH]c2=O)cc1 [Compound 5239]	7
CN(C)CCCOc1ccc(/C=c2\[nH]c(=O)/c(=C/c3ccc(Br)cc3)[nH]c2=O)cc1 [Compound 5360]	3.5
Cc1cccc(/C=c2\[nH]c(=O)/c(=C/c3ccc(OCCCN(C)C)cc3)[nH]c2=O)c1 [Compound 5187]	100
CN(C)CCCOc1ccc(/C=c2\[nH]c(=O)/c(=C/c3cc(Cl)cc(Cl)c3)[nH]c2=O)cc1 [Compound 5372]	11

(1) CN(C)CCCOc1ccc(/C=c2\[nH]c(=O)/c(=C/c3cccc(F)c3)[nH]c2=O)cc1 [Compound 5373]
(2) CN(C)CCCOc1ccc(/C=c2\[nH]c(=O)/c(=C/c3ccc([N+](=O)[O-])cc3)[nH]c2=O)cc1 [Compound 5228]
[Q] Pick the one with the larger IC50: 1 vs 2 Pick one; state its label.
[A] 1
(1: 13 µM, 2: 1.1 µM)
